IC50 values, listed per item
molecular target: Gag-Pol polyprotein [588-1027]/[588-1147] (Human immunodeficiency virus 1, UniProt P04585); construct: 588-1027; 588-1147; test: HIV-1 RT Assay; conditions: pH 8
quantity_name: IC50

compound	target_or_test_system	quantity_name	val
O=[N+]([O-])c1ccccc1Sc1ccccc1[N+](=O)[O-] [Bisnitrophenylsulfide]	Gag-Pol polyprotein [588-1027]/[588-1147] (Human immunodeficiency virus 1, UniProt P04585)	IC50	> 20 µM
N#Cc1c(N)cccc1Sc1cccc(N)c1	Gag-Pol polyprotein [588-1027]/[588-1147] (Human immunodeficiency virus 1, UniProt P04585)	IC50	> 23 µM
COc1ccc(Sc2cccc(N)c2C#N)cc1	Gag-Pol polyprotein [588-1027]/[588-1147] (Human immunodeficiency virus 1, UniProt P04585)	IC50	> 17 µM
N#Cc1c(N)cccc1Sc1ccccc1Br	Gag-Pol polyprotein [588-1027]/[588-1147] (Human immunodeficiency virus 1, UniProt P04585)	IC50	> 21 µM
N#Cc1ccc(Sc2cccc(N)c2C#N)cc1	Gag-Pol polyprotein [588-1027]/[588-1147] (Human immunodeficiency virus 1, UniProt P04585)	IC50	> 19 µM
